molecular target: FGFR1 (UniProt P11362); experiment: phosphorylation enrichment, bacterial display (enrichment ratio); higher = better substrate or ligand; peptides without Tyr show the background;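 further: 11-residue human phosphosite peptides and single-mutation variants displayed on the E. coli surface, counted by deep sequencing, each peptide's frequency after selection divided by its frequency in the unselected input library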;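 further: frequency after pTyr selection over input frequency; kinase dosed for 20-30% of maximal phosphorylation in three min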
Sequence (P11362 whole entry, looked up): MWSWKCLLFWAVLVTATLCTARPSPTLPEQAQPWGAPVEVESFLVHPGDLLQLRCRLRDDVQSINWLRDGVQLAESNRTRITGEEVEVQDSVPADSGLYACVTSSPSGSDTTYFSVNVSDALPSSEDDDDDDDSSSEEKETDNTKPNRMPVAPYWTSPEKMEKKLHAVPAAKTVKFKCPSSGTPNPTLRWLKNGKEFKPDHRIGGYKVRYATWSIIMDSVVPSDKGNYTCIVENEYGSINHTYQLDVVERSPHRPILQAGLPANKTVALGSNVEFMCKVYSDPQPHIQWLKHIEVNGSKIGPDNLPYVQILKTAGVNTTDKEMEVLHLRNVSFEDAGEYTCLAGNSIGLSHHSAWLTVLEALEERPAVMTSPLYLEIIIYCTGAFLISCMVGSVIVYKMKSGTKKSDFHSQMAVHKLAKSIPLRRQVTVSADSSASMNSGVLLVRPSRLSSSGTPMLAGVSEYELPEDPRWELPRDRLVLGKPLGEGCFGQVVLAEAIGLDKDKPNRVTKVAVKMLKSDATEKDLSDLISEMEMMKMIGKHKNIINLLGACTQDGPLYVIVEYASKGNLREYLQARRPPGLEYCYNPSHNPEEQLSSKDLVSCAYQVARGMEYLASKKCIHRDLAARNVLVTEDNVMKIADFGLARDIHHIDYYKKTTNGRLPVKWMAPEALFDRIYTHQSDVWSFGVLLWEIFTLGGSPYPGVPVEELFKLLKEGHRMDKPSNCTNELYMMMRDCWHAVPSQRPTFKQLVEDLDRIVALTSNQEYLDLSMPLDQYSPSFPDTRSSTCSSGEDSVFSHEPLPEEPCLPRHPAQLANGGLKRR
Could you please report measured phosphorylation enrichment for the items listed next?
Give bare numbers.

Below, 5 sequences whose answers are already recorded.
* EYKKKYSDADI [CKAP5_Y1860] | 0.404
* LYEDRYLLGPS [ASS1_Y87_T91P] | 1.2
* DASAVYLHDFQ [PLCG2_Y242] | 0.477
* QTENKYVSVSG [EIF2AK3_Y565_D566V] | 0.527
* ELSDGYWVVSN [TPP1_Y459_A454E] | 1.3

Lab note: each sequence below needs its phosphorylation enrichment filled in.
1. IGHGSYAKVLL [PRKCZ_Y263_R260H]
2. AIMSFYATLID [RYR1_Y2426_A2428T]
3. VLVSQYEKLNA [AMZ2_Y26]
4. EFDRLYEEFTR [PIK3R1_Y467_YF]

1: 0.517; 2: 0.601; 3: 0.362; 4: 0.65

Lab note: each sequence below needs its phosphorylation enrichment filled in.
1. ASPALYRLDLD [TRIL_Y352]
2. VQVAYYTVMMN [SPATA17_Y84_M86V]
3. PKSLFYLLLKL [TRPC6_Y775]
4. FCRIMYDIFPF [INTS13_Y67_YF]
5. YPQARYHWLVL [APTX_Y214_K211Q]

1. 0.552
2. 5.77
3. 1.12
4. 0.531
5. 1.96

* * *

target: MERTK (UniProt Q12866); test: phosphorylation enrichment, bacterial display (enrichment ratio); higher = better substrate or ligand; peptides without Tyr show the background
Sequence (Q12866 whole entry, looked up): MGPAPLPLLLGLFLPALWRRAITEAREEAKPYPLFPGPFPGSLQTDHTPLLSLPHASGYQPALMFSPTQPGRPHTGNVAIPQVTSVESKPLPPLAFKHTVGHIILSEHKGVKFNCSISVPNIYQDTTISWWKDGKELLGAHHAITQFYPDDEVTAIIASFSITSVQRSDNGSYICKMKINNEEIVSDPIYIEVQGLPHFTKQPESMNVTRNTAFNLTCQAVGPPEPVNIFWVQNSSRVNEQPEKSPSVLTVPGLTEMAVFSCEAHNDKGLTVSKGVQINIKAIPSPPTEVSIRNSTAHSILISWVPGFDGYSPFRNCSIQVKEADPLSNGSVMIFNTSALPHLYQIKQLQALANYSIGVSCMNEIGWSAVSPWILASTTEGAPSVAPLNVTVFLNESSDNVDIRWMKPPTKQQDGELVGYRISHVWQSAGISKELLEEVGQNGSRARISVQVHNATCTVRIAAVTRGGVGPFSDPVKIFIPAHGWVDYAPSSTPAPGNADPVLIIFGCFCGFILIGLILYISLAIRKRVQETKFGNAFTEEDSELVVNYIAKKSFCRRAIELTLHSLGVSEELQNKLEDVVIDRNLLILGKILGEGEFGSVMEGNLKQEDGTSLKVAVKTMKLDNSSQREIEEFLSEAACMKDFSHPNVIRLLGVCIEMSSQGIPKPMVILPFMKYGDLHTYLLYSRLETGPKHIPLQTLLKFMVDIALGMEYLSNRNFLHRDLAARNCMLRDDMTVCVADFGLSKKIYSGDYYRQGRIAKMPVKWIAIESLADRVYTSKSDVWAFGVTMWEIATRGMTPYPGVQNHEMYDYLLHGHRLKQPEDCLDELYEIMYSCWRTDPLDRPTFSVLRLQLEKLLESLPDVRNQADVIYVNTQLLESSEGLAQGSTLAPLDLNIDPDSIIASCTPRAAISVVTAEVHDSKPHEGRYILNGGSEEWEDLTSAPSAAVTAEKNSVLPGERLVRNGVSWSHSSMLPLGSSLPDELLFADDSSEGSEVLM
Please mark criterion met if the recorded phosphorylation enrichment is equal to or greater than 0.5, and criterion not met if it falls below.

- LHAAAYWNALA [UQCRC2_Y182_R183W]: criterion not met
- LSKDLYLISQM [LARP4_Y141]: criterion met
- KELANYFKLHH [AK7_Y390_YF]: criterion met
- VTDGKYAFKPK [GTF2E2_Y137_I133T]: criterion not met
- LCRYGYANTSE [SI_Y1233]: criterion met

Given the entry MCDSHYLESRS [CLK1_Y56] , answer whether its phosphorylation enrichment meets or surpasses 0.5.
criterion not met

Given the entry EFDRLYEEFTR [PIK3R1_Y467_YF] , answer whether its phosphorylation enrichment meets or surpasses 0.5.
criterion met

Given the entry AIYRRYSKFFD [SH3PXD2B_Y45] , answer whether its phosphorylation enrichment meets or surpasses 0.5.
criterion met

Given the entry LHSEAYLKYNE [PBRM1_Y1610_I1614N] , answer whether its phosphorylation enrichment meets or surpasses 0.5.
criterion not met

Given the entry CERFSYFGMKA [SLC15A2_Y60_YF] , answer whether its phosphorylation enrichment meets or surpasses 0.5.
criterion met

Given the entry ESTPLYPMLFG [SCLY_Y280_F276S] , answer whether its phosphorylation enrichment meets or surpasses 0.5.
criterion met

* * *

system: AncSZ; assay: phosphorylation enrichment, bacterial display (enrichment ratio); higher = better substrate or ligand; peptides without Tyr show the background
Please mark label 1 if the recorded phosphorylation enrichment is equal to or greater than 1, and label 0 if it falls below.

• GCCSWYRGWAP [TIMP3_Y195_Y191C] = label 0

Given the entry EYKKKYSDADI [CKAP5_Y1860] , answer whether its phosphorylation enrichment meets or surpasses 1.
label 0

Given the entry KRGVSYILKLA [SERPINB1_Y84_A82V] , answer whether its phosphorylation enrichment meets or surpasses 1.
label 1

Given the entry IRKKFYRAILE [CHD7_Y1218_Q1214R_YF] , answer whether its phosphorylation enrichment meets or surpasses 1.
label 0

Given the entry KNGSNYVVKGN [KIT_Y823_D820G] , answer whether its phosphorylation enrichment meets or surpasses 1.
label 0

Given the entry HFECKYVINAI [MAOA_Y268_YF] , answer whether its phosphorylation enrichment meets or surpasses 1.
label 1

Given the entry GVIRHSVVCST [BTK_Y334_Y334S] , answer whether its phosphorylation enrichment meets or surpasses 1.
label 0

The reported measurements were obtained from the supplement of paper PMC10065799.
